// provenance: paper PMC10714400

- Tested on: human red blood cells (hRBC)
- assay: Minimum hemolytic concentration (MHC)
- Assay type: cell-based
Where a SMILES comes first, the peptide text is derived from it. [ ]: non-standard residue; d: D form. Nleu = CC(C)CNCC(=O)O
experimentalReadout: MHC

Let me check: CC(C)CN(CC(N)=O)C(=O)CN(CC(C)C)C(=O)CN(CC(C)C)C(=O)[C@H](CCCCN)NC(=O)CN(CC(C)C)C(=O)CN(CC(C)C)C(=O)[C@H](CCCCN)NC(=O)CN(CC(C)C)C(=O)CN(CC(C)C)C(=O)[C@H](CCCCN)NC(=O)[C@@H](N)CCCCN [EB8, KKllKllKlll] (H-KK[Nleu][Nleu]K[Nleu][Nleu]K[Nleu][Nleu][Nleu]-NH2) , system human red blood cells (hRBC), measured MHC is >2000 µg/mL
